Molecular target: human KCNQ2 and KCNQ3 subunits (KCNQ2/3 channels) (Homo sapiens, UniProt O43525+O43526)
Experiment: KCNQ2/3 thallium influx FLIPR assay (BTC-AM dye)
Settings: HEK293 cells stably expressing human KCNQ2 and KCNQ3; Tl+ influx
property: EC50

Test item CC(C)c1nc2ccccc2c(=O)n1NC(=O)C[C@H]1C[C@H]2C[C@@H](C1F)C2(C)C (some centres unmarked) [Example 23] ; human KCNQ2 and KCNQ3 subunits (KCNQ2/3 channels) (Homo sapiens, UniProt O43525+O43526); reported EC50 was 100 to 500 nM

Test item CC1(C)[C@H]2CC[C@@H](CC(=O)Nn3c(C4CC4)nc4ccccc4c3=O)[C@@H]1C2 [Example 5] ; human KCNQ2 and KCNQ3 subunits (KCNQ2/3 channels) (Homo sapiens, UniProt O43525+O43526); reported EC50 was < 100 nM

Test item Cc1nc2ccccc2c(=O)n1NC(=O)C[C@@H]1CC[C@H]2C[C@@H]1C2(C)C [Example 17] ; human KCNQ2 and KCNQ3 subunits (KCNQ2/3 channels) (Homo sapiens, UniProt O43525+O43526); reported EC50 was 1000 to 10000 nM

Test item CC(C)c1nc2ccccc2c(=O)n1NC(=O)C[C@@H]1CC[C@H]2C[C@@H]1C2(C)C [Example 1] ; human KCNQ2 and KCNQ3 subunits (KCNQ2/3 channels) (Homo sapiens, UniProt O43525+O43526); reported EC50 was < 100 nM

Test item CC(C)c1nc2ccccc2c(=O)n1NC(=O)C[C@@H]1[C@H](F)C[C@H]2C[C@@H]1C2(C)C [Example 24] ; human KCNQ2 and KCNQ3 subunits (KCNQ2/3 channels) (Homo sapiens, UniProt O43525+O43526); reported EC50 was < 100 nM

* * *

Target: human KCNQ4 (Homo sapiens, UniProt P56696)
Construct: expressed in transfected cells; host or cells: HEK293
Test: KCNQ4 thallium influx FLIPR TETRA assay
Type: cell-based
Conditions: maximum response relative to 10 μM retigabine (=100%); read-out: KCNQ4 Max. %
property: Emax (%)
State the answer as a number, implicitly in %.

GET /value?item= `CC(C)c1nc2ccccc2c(=O)n1NC(=O)C[C@@H]1CC[C@H]2C[C@@H]1C2(C)C` &field=Emax returns 22

GET /value?item= `CC1(C)[C@H]2CC[C@@H](CC(=O)Nn3c(C4CC4)nc4ccccc4c3=O)[C@@H]1C2` &field=Emax returns 6

GET /value?item= `CC1(C)[C@H]2CC[C@@H](CC(=O)Nn3c(C4CC4)nc4cc(C(F)(F)F)ccc4c3=O)[C@@H]1C2` &field=Emax returns 1

GET /value?item= `CC(C)c1nc2ccc(F)cc2c(=O)n1NC(=O)C[C@@H]1CC[C@H]2C[C@@H]1C2(C)C` &field=Emax returns 8

GET /value?item= `CC1(C)[C@H]2CC[C@@H](CC(=O)Nn3c(CC(F)(F)F)nc4ccccc4c3=O)[C@@H]1C2` &field=Emax returns 27

GET /value?item= `CC(C)c1nc2sccc2c(=O)n1NC(=O)C[C@@H]1CC[C@H]2C[C@@H]1C2(C)C` &field=Emax returns 46

GET /value?item= CC(C)c1nc2ccccc2c(=O)n1NC(=O)C[C@H]1C[C@H]2C[C@@H](C1F)C2(C)C (stereo partly shown) &field=Emax returns 229

* * *

Target: human KCNQ5 (Homo sapiens)
Construct: expressed in transfected cells; host or cells: HEK293
Test: KCNQ5 thallium influx FLIPR TETRA assay
Format: cell-based
Details: maximum response relative to 10 μM retigabine (=100%); read-out: KCNQ5 Max. %
property: Emax (%)
State the answer as a number, implicitly in %.

GET /value?item= CC(C)c1nc2ccc(F)cc2c(=O)n1NC(=O)C[C@@H]1CC[C@H]2C[C@@H]1C2(C)C [Example 13] &field=Emax returns 21

GET /value?item= Cc1nc2ccccc2c(=O)n1NC(=O)C[C@@H]1CC[C@H]2C[C@@H]1C2(C)C [Example 17] &field=Emax returns 14

GET /value?item= CC(C)c1nc2ccccc2c(=O)n1NC(=O)C[C@H]1C[C@H]2C[C@@H](C1F)C2(C)C (some centres unmarked) [Example 23] &field=Emax returns 633

GET /value?item= CC(C)c1nc2ccc(Cl)cc2c(=O)n1NC(=O)C[C@@H]1CC[C@H]2C[C@@H]1C2(C)C [Example 18] &field=Emax returns 19

GET /value?item= CC1(C)[C@H]2CC[C@@H](CC(=O)Nn3cnc4ccccc4c3=O)[C@@H]1C2 [Example 16] &field=Emax returns 13

* * *

Target: human KCNQ4 (Homo sapiens, UniProt P56696)
Construct: expressed in transfected cells; host or cells: HEK293
Experiment: KCNQ4 thallium influx FLIPR TETRA assay
Assay type: cell-based
Conditions: maximum response relative to 10 μM retigabine (=100%); read-out: KCNQ4 Max. %
Please respond with reported Emax for every item in the list.

GET /value?item= CC(C)c1nc2ccccc2c(=O)n1NC(=O)CSC[C@@H]1CC[C@H]2C[C@@H]1C2(C)C [Example 12] &field=Emax returns 41%

GET /value?item= CC(C)c1nc2ccccc2c(=O)n1NC(=O)COC[C@@H]1CC[C@H]2C[C@@H]1C2(C)C [Example 8] &field=Emax returns 57%

GET /value?item= CC1(C)[C@H]2CC[C@@H](CC(=O)Nn3c(C4CC4)nc4cc(F)ccc4c3=O)[C@@H]1C2 [Example 3] &field=Emax returns -2%

GET /value?item= CC(C)c1nc2ccccc2c(=O)n1NC(=O)CC1CC2CC1C2 (racemic) [Example 22] &field=Emax returns 255%

GET /value?item= CC(C)c1nc2ccccc2c(=O)n1NC(=O)CCSC[C@@H]1CC[C@H]2C[C@@H]1C2(C)C [Example 11] &field=Emax returns 293%

GET /value?item= CC(C)c1nc2ccc(Cl)cc2c(=O)n1NC(=O)C[C@@H]1CC[C@H]2C[C@@H]1C2(C)C [Example 18] &field=Emax returns 4%

GET /value?item= CC(C)c1nc2ccccc2c(=O)n1NC(=O)C[C@@H]1[C@H](F)C[C@H]2C[C@@H]1C2(C)C [Example 24] &field=Emax returns -43%

GET /value?item= CC(C)c1nc2ccccc2c(=O)n1NC(=O)COCC[C@@H]1CC[C@H]2C[C@@H]1C2(C)C [Example 10] &field=Emax returns 122%

* * *

Target: human KCNQ2 and KCNQ3 subunits (KCNQ2/3 channels) (Homo sapiens, UniProt O43525+O43526)
Assay: KCNQ2/3 thallium influx FLIPR assay (BTC-AM dye)
Conditions: HEK293 cells stably expressing human KCNQ2 and KCNQ3; Tl+ influx
property: EC50

Test item CC1(C)[C@H]2CC[C@@H](CC(=O)Nn3c(C(F)(F)F)nc4ccccc4c3=O)[C@@H]1C2 [Example 7] ; human KCNQ2 and KCNQ3 subunits (KCNQ2/3 channels) (Homo sapiens, UniProt O43525+O43526); reported EC50 was 100 to 500 nM

Test item CC1(C)[C@H]2CC[C@@H](CC(=O)Nn3c(C4CC4)nc4cc(C(F)(F)F)ccc4c3=O)[C@@H]1C2 [Example 4] ; human KCNQ2 and KCNQ3 subunits (KCNQ2/3 channels) (Homo sapiens, UniProt O43525+O43526); reported EC50 was > 30000 nM

Test item CC(C)c1nc2ccccc2c(=O)n1NC(=O)CCSC[C@@H]1CC[C@H]2C[C@@H]1C2(C)C [Example 11] ; human KCNQ2 and KCNQ3 subunits (KCNQ2/3 channels) (Homo sapiens, UniProt O43525+O43526); reported EC50 was 100 to 500 nM

* * *

Target: human KCNQ2 and KCNQ3 subunits (KCNQ2/3 channels) (Homo sapiens, UniProt O43525+O43526)
Construct: expressed in transfected cells; host or cells: HEK293
Assay: KCNQ2/3 thallium influx FLIPR assay (BTC-AM dye)
Assay type: cell-based
Settings: maximum response relative to 10 μM retigabine (=100%); read-out: KCNQ2/3 Max. %
property: Emax (%)
State the answer as a number, implicitly in %.

GET /value?item= CC1(C)[C@H]2CC[C@@H](CC(=O)Nn3c(C4CC4)nc4sccc4c3=O)[C@@H]1C2 [Example 15] &field=Emax returns 149

GET /value?item= CC(C)c1nc2sccc2c(=O)n1NC(=O)C[C@@H]1CC[C@H]2C[C@@H]1C2(C)C [Example 20] &field=Emax returns 111

GET /value?item= Cc1nc2ccccc2c(=O)n1NC(=O)C[C@@H]1CC[C@H]2C[C@@H]1C2(C)C [Example 17] &field=Emax returns 97

GET /value?item= CC(C)c1nc2ccccc2c(=O)n1NC(=O)C[C@H]1C[C@H]2C[C@@H](C1F)C2(C)C (some centres unmarked) [Example 23] &field=Emax returns 155

GET /value?item= CC1(C)[C@H]2CC[C@@H](CC(=O)Nn3c(C4CC4)nc4cc(F)ccc4c3=O)[C@@H]1C2 [Example 3] &field=Emax returns 99

GET /value?item= CCN(CC)c1nc2ccccc2c(=O)n1NC(=O)C[C@@H]1CC[C@H]2C[C@@H]1C2(C)C [Example 19] &field=Emax returns 28

GET /value?item= CC1(C)[C@H]2CC[C@@H](CC(=O)Nn3c(C4CC4)nc4ccccc4c3=O)[C@@H]1C2 [Example 5] &field=Emax returns 93

GET /value?item= CC1(C)[C@H]2CC[C@@H](CC(=O)Nn3c(CC(F)(F)F)nc4ccccc4c3=O)[C@@H]1C2 [Example 14] &field=Emax returns 105
